- Tested on: Escherichia coli TOP10
- assayProcedure: shrunken log2 fold change of peptide-encoding DNA abundance (4.5 h post-induction vs induction); higher = less antimicrobial activity (less host growth inhibition)
- statedConditions: time post-induction: 4.5 h; library: site-saturation at positions 5, 18, 19, 20
Mark YES for reported shrunken log2 fold change of 0.05 or greater; mark NO for anything smaller.

| seqText | labelValue |
| --- | --- |
| RRIRGRPPRLPRPRPRPYPNPRP | NO |
| RRIRPRPPRLPRPRPRPCDAPRP | YES |
| RRIRGRPPRLPRPRPRPCTVPRP | NO |
| RRIRQRPPRLPRPRPRPQIFPRP | NO |
| RRIRDRPPRLPRPRPRPLENPRP | NO |
| RRIRVRPPRLPRPRPRPKPLPRP | YES |
| RRIRPRPPRLPRPRPRPPGLPRP | YES |
| RRIRGRPPRLPRPRPRPGCQPRP | YES |
| RRIRQRPPRLPRPRPRPVRPPRP | YES |
| RRIRSRPPRLPRPRPRPRAPPRP | YES |
| RRIRHRPPRLPRPRPRPAWIPRP | NO |
| RRIRMRPPRLPRPRPRPPIWPRP | YES |
| RRIRPRPPRLPRPRPRPDNFPRP | NO |
| RRIRPRPPRLPRPRPRPNHVPRP | NO |
| RRIRDRPPRLPRPRPRPVYRPRP | NO |
| RRIRGRPPRLPRPRPRPVYSPRP | NO |
| RRIRTRPPRLPRPRPRPYICPRP | NO |
| RRIRPRPPRLPRPRPRPADAPRP | YES |
| RRIRQRPPRLPRPRPRPLHKPRP | YES |
| RRIRMRPPRLPRPRPRPQGAPRP | YES |
| RRIRVRPPRLPRPRPRPFYQPRP | NO |
| RRIRCRPPRLPRPRPRPHESPRP | NO |
| RRIRCRPPRLPRPRPRPETEPRP | NO |
| RRIRCRPPRLPRPRPRPSYFPRP | NO |
| RRIRTRPPRLPRPRPRPNCTPRP | NO |
| RRIRNRPPRLPRPRPRPEIDPRP | YES |
| RRIRSRPPRLPRPRPRPSTYPRP | NO |
| RRIRHRPPRLPRPRPRPRYCPRP | NO |
| RRIRLRPPRLPRPRPRPGPKPRP | YES |
| RRIRVRPPRLPRPRPRPGYFPRP | NO |

----------
- Test system: Escherichia coli TOP10
- assayProcedure: shrunken log2 fold change of peptide-encoding DNA abundance (4.5 h post-induction vs induction); higher = less antimicrobial activity (less host growth inhibition)
- statedConditions: time post-induction: 4.5 h; library: site-saturation at positions 5, 18, 19, 20
shrunken log2 fold change reference

| seqText | shrunken log2 fold change |
| --- | --- |
| RRIRLRPPRLPRPRPRPQTWPRP | 0.0171 |
| RRIRARPPRLPRPRPRPDVFPRP | 0.176 |
| RRIRIRPPRLPRPRPRPEPGPRP | 0.253 |
| RRIRSRPPRLPRPRPRPIVKPRP | -0.143 |
| RRIRMRPPRLPRPRPRPGFFPRP | 0.423 |
| RRIRTRPPRLPRPRPRPHGKPRP | -0.209 |
| RRIRDRPPRLPRPRPRPGPNPRP | 0.0518 |
| RRIRHRPPRLPRPRPRPKDMPRP | -0.282 |
| RRIRDRPPRLPRPRPRPTCAPRP | 0.927 |
| RRIRHRPPRLPRPRPRPYPFPRP | -0.772 |
| RRIRWRPPRLPRPRPRPSNPPRP | -0.218 |
| RRIRHRPPRLPRPRPRPDMIPRP | -0.0018 |
| RRIRHRPPRLPRPRPRPNRFPRP | -0.00088 |
| RRIRSRPPRLPRPRPRPEMFPRP | -0.0055 |
| RRIRERPPRLPRPRPRPDVRPRP | 0.0184 |
| RRIRNRPPRLPRPRPRPDTRPRP | -0.111 |
| RRIRVRPPRLPRPRPRPGEYPRP | 0.00369 |
| RRIRGRPPRLPRPRPRPDWHPRP | 0.238 |
| RRIRKRPPRLPRPRPRPVVSPRP | -0.292 |
| RRIRRRPPRLPRPRPRPQKCPRP | -0.288 |
| RRIRWRPPRLPRPRPRPHRYPRP | -0.15 |
| RRIRPRPPRLPRPRPRPRTRPRP | 0.187 |
| RRIRRRPPRLPRPRPRPWFTPRP | 0.0255 |
| RRIRDRPPRLPRPRPRPLMKPRP | -0.19 |
| RRIRKRPPRLPRPRPRPDCSPRP | -0.0754 |
| RRIRNRPPRLPRPRPRPNIVPRP | -0.115 |
| RRIRARPPRLPRPRPRPKSAPRP | 0.709 |
| RRIRERPPRLPRPRPRPELAPRP | 0.161 |
| RRIRVRPPRLPRPRPRPEVVPRP | -0.0305 |
| RRIRGRPPRLPRPRPRPVQVPRP | 0.215 |
| RRIRWRPPRLPRPRPRPQQDPRP | 0.0825 |
| RRIRDRPPRLPRPRPRPVKFPRP | 0.284 |

----------
shrunken log2 fold change reference
- Tested on: Escherichia coli TOP10
- assayProcedure: shrunken log2 fold change of peptide-encoding DNA abundance (4.5 h post-induction vs induction); higher = less antimicrobial activity (less host growth inhibition)
- statedConditions: time post-induction: 4.5 h; library: site-saturation at positions 5, 18, 19, 20

| seqText | shrunken log2 fold change |
| --- | --- |
| RRIRERPPRLPRPRPRPAERPRP | 0.104 |
| RRIRQRPPRLPRPRPRPRPEPRP | 0.646 |
| RRIRKRPPRLPRPRPRPVKTPRP | 0.141 |
| RRIRIRPPRLPRPRPRPDFVPRP | -0.0852 |
| RRIRDRPPRLPRPRPRPWRQPRP | -0.114 |
| RRIRARPPRLPRPRPRPDYCPRP | -0.17 |
| RRIRERPPRLPRPRPRPVLEPRP | -0.0875 |
| RRIRNRPPRLPRPRPRPQSIPRP | -0.0502 |
| RRIRTRPPRLPRPRPRPENAPRP | -0.49 |
| RRIRNRPPRLPRPRPRPAEVPRP | -0.144 |
| RRIRMRPPRLPRPRPRPCPRPRP | 0.167 |
| RRIRIRPPRLPRPRPRPKVMPRP | -0.206 |
| RRIRKRPPRLPRPRPRPTNKPRP | 0.14 |
| RRIRTRPPRLPRPRPRPTLSPRP | 0.106 |
| RRIRSRPPRLPRPRPRPSQGPRP | -0.252 |

----------
- Test system: Escherichia coli TOP10;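 further: peptides expressed intracellularly from a pBAD plasmid library in pooled LB shake-flask culture, induced with 0.3% L-arabinose, DNA abundance read by NGS, three biological replicates, DESeq2 with apeglm shrinkage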
- assayProcedure: shrunken log2 fold change of peptide-encoding DNA abundance (4.5 h post-induction vs induction); higher = less antimicrobial activity (less host growth inhibition)
- statedConditions: time post-induction: 4.5 h; library: site-saturation at positions 5, 18, 19, 20

| seqText | shrunken log2 fold change |
| --- | --- |
| RRIRERPPRLPRPRPRPYMIPRP | -0.259 |
| RRIRGRPPRLPRPRPRPIPEPRP | 0.462 |
| RRIRYRPPRLPRPRPRPMSGPRP | -0.748 |
| RRIRERPPRLPRPRPRPSISPRP | 0.0881 |
| RRIRMRPPRLPRPRPRPNWSPRP | -0.18 |
| RRIRGRPPRLPRPRPRPHRGPRP | 0.0302 |
| RRIRERPPRLPRPRPRPNMAPRP | -0.163 |
| RRIRMRPPRLPRPRPRPHNIPRP | -0.0272 |
| RRIRDRPPRLPRPRPRPAFPPRP | -0.0705 |
| RRIRYRPPRLPRPRPRPNYVPRP | -0.466 |
| RRIRVRPPRLPRPRPRPVYEPRP | -0.127 |
| RRIRSRPPRLPRPRPRPTVFPRP | 0.222 |
| RRIRLRPPRLPRPRPRPVRWPRP | 0.928 |
| RRIRFRPPRLPRPRPRPREVPRP | 0.199 |
| RRIRSRPPRLPRPRPRPYPWPRP | -0.591 |
| RRIRGRPPRLPRPRPRPDSCPRP | 0.426 |
| RRIRWRPPRLPRPRPRPRSYPRP | -0.0435 |
| RRIRMRPPRLPRPRPRPSRFPRP | 0.253 |
| RRIRGRPPRLPRPRPRPIRAPRP | 0.602 |
| RRIRHRPPRLPRPRPRPRTNPRP | 0.0589 |
| RRIRYRPPRLPRPRPRPYHTPRP | -0.0274 |
| RRIRGRPPRLPRPRPRPPHCPRP | 0.902 |
| RRIRRRPPRLPRPRPRPPWCPRP | 0.294 |
| RRIRTRPPRLPRPRPRPGKSPRP | -0.402 |
| RRIRDRPPRLPRPRPRPSRNPRP | 0.326 |
| RRIRMRPPRLPRPRPRPNVYPRP | -0.368 |
| RRIRMRPPRLPRPRPRPTNMPRP | -0.0158 |
| RRIRVRPPRLPRPRPRPQAKPRP | 0.0434 |
| RRIRGRPPRLPRPRPRPISIPRP | 0.199 |
| RRIRFRPPRLPRPRPRPNMYPRP | -0.712 |
| RRIRRRPPRLPRPRPRPRMWPRP | 0.431 |
| RRIRMRPPRLPRPRPRPRLHPRP | 0.721 |
| RRIRCRPPRLPRPRPRPHYCPRP | -0.342 |
| RRIRPRPPRLPRPRPRPQLVPRP | 0.0126 |
| RRIRQRPPRLPRPRPRPGATPRP | 0.273 |
| RRIRARPPRLPRPRPRPQHAPRP | 0.269 |
| RRIRWRPPRLPRPRPRPQHFPRP | 0.418 |
| RRIRNRPPRLPRPRPRPQNGPRP | 0.00902 |
| RRIRGRPPRLPRPRPRPAAIPRP | 0.953 |
| RRIRCRPPRLPRPRPRPEGFPRP | 0.0977 |
| RRIRYRPPRLPRPRPRPSQAPRP | -0.0185 |
| RRIRERPPRLPRPRPRPMPAPRP | -0.0153 |
| RRIRDRPPRLPRPRPRPHGFPRP | -0.00776 |
| RRIRKRPPRLPRPRPRPTKTPRP | 0.14 |
| RRIRERPPRLPRPRPRPGEMPRP | -0.0373 |
| RRIRWRPPRLPRPRPRPKKIPRP | 0.0449 |
| RRIRWRPPRLPRPRPRPHSNPRP | -0.09 |
| RRIRVRPPRLPRPRPRPNRTPRP | 0.0905 |
| RRIRCRPPRLPRPRPRPSIQPRP | -0.655 |
| RRIRPRPPRLPRPRPRPYEVPRP | -0.125 |
| RRIRQRPPRLPRPRPRPIETPRP | 0.00824 |
| RRIRWRPPRLPRPRPRPSPVPRP | -0.0363 |
| RRIRGRPPRLPRPRPRPFPEPRP | 0.56 |
| RRIRDRPPRLPRPRPRPFHAPRP | -0.108 |
| RRIRGRPPRLPRPRPRPDEGPRP | -0.001 |
| RRIRYRPPRLPRPRPRPKTCPRP | -0.0102 |
| RRIRLRPPRLPRPRPRPESHPRP | -0.118 |
| RRIRARPPRLPRPRPRPHWVPRP | 0.0153 |
| RRIRLRPPRLPRPRPRPIFPPRP | 0.0478 |
| RRIRKRPPRLPRPRPRPHDCPRP | 0.108 |
| RRIRCRPPRLPRPRPRPKWHPRP | -0.169 |
| RRIRKRPPRLPRPRPRPWNEPRP | -0.0249 |
| RRIRKRPPRLPRPRPRPGAAPRP | 1.54 |
